TARGET_SYSTEM: SpBzz1-D2
ASSAY_TEXT: SPOT peptide array binding signal intensity (averaged, normalized) (arbitrary units (background-subtracted, floor 0; scale differs between SH3 domains)); higher = stronger binding of the SH3 domain to the peptide
# reported SPOT peptide array binding signal intensity; entries follow

// worked examples, SPOT peptide array binding signal intensity included
BINDER: HVRRSILALPLGVLL
ASSAY_RESULT: ≤ 0
//
BINDER: LASNSPPVYPKRIRH
ASSAY_RESULT: ≤ 0
//
BINDER: VGFRLALKFPSRITG
ASSAY_RESULT: 111

API: the following record is the query input.
Any idea what SPOT peptide array binding signal intensity was measured for HGKRRAPLLLAKLDV ?
≤ 0
